# TARGET OR SYSTEM: C-terminally truncated SARS-CoV-2 S protein (pSARS-CoV2-Strunc), ancestral (SARS-CoV-2, UniProt P0DTC2 14-1273)
# PROCEDURE DETAILS: cell-based or functional assay
OBSERVABLE: Ancestral Pseudovirus IC50
Just the number plus its unit, please.

May I ask what Ancestral Pseudovirus IC50 has been recorded for fp.001 (antibody, V domains shown) VH: VQLVESGGGVVQPGRPLRLSCSGSGFIFSNYAMHWVRQAPGKGLEWVAIISFDARNKRYADSVEGRFTISRDNSKNILYLQMNSLRLEDSAVYFCARDLFLSDYDNGVYDPTRGGFDYWGQGTLVTVSS VL: EIVMTQSPATLSLSPGERATLSCRASQSVNNRLAWYQQKLGQPPRLLISGASTRATGIPARFTGSGSGTEFTLTISSLQSEDFAVYYCQQYHDWPLLSFGGGTKVEIK ?
2.19 mg/L

Please do the same for hr2.094 (antibody, V domains shown) VH: EVQLVESGGGLVQPGGSLRLSCAASGFTFSTFWMTWVRQAPGKGLEWVANIKSDGSEKYYVDSVKGRFTISRDNAKNSLYLQMNSLRAEDTAVYYCATWFGLHWGQGTLVTVSS VL: DIVMTQSPDSLAVSLGERASINCKSSQTVLYSSNNKNYLAWYQQKPGQPPKLLIHWASTRDSGVPDRFSGSGSGTDFTLTISSLQAEDVAVYYCQQYHRIPWTFGRGTKVEIK as well.
2.95 mg/L

Every entry's value here was drawn from patent US20250382354A1.
